Each entry below carries its reported inhibition in vivo at 10 mg/kg.
# System: Haloperidol-Induced Catalepsy
# Protocol Notes: Effect on haloperidol-induced catalepsy
# Type: in vivo, male ddY mice
# Applied Conditions: Mus musculus, po, 1 h; Table 4-2; test compound 10 mg/kg orally; rate of decrease in total score based on control group; read-out: Remission Rate (%)
# output: bare number, implied unit %

Compound | Study Target | Unit Info | Recorded Number
CCCn1c(=O)c2[nH]c(/C=C/c3cc(Br)c(OC)c(OC)c3)nc2n(CCC)c1=O [Compound 59] | Haloperidol-Induced Catalepsy | % | 24
CCCn1c(=O)c2c(nc(/C=C/c3ccc(C)c(C)c3)n2C)n(CCC)c1=O [Compound 31] | Haloperidol-Induced Catalepsy | % | 28
CCCn1c(=O)c2c(nc(/C=C/c3ccc(O)c(O)c3)n2C)n(CCC)c1=O [Compound 53] | Haloperidol-Induced Catalepsy | % | 20

Form: item CCCn1c(=O)c2c(nc(/C=C/c3ccc(OCC)cc3)n2C)n(CCC)c1=O [Compound 48] ; test system Haloperidol-Induced Catalepsy; inhibition in vivo at 10 mg/kg: 76

Param item: CCCn1c(=O)c2c(nc(/C=C/c3ccc(OC)cc3OC)n2C)n(CCC)c1=O [Compound 25] ; param system: Haloperidol-Induced Catalepsy; output inhibition in vivo at 10 mg/kg: 52

So the reported inhibition in vivo at 10 mg/kg for CCCOc1ccc(/C=C/c2nc3c(c(=O)n(CCC)c(=O)n3CCC)n2C)cc1 [Compound 50] , on Haloperidol-Induced Catalepsy, turned out to be 24

---

# Test system: dd-strain male mice
# Protocol Notes: Acute toxicity test (minimum lethal dose, oral)
# Assay type: in vivo
# Applied Conditions: oral administration, mortality seven days after administration, three mice per group
Recorded MLD by entry

Recorded MLD, per entry:
Compound | MLD
CCCn1c(=O)c2c(nc(/C=C/c3cc(OC)cc(OC)c3)n2C)n(CCC)c1=O [Compound 33] | > 100 mg/kg
CCCn1c(=O)c2c(nc(/C=C/c3ccc(OC)c(Br)c3)n2C)n(CCC)c1=O [Compound 56] | > 100 mg/kg
CCCn1c(=O)c2nc(/C=C/c3cc(OC)c(OC)c(OC)c3)[nH]c2n(CCC)c1=O [Compound 9] | > 300 mg/kg

Reported MLD for C=CCn1c(=O)c2nc(/C=C/c3cc(OC)c(OC)c(OC)c3)[nH]c2n(CC=C)c1=O [Compound 11] was > 300 mg/kg

Reported MLD for CCCn1c(=O)c2c(nc(/C=C/c3cc(OC)c(OC)c(OC)c3)n2C)n(CCC)c1=O [Compound 5] was > 300 mg/kg

Lab note: CCCn1c(=O)c2c(nc(/C=C/c3ccc(O)c(O)c3)n2C)n(CCC)c1=O [Compound 53] gave MLD of > 100 mg/kg

Entry CCCn1c(=O)c2c(nc(/C=C/c3ccc(OC)cc3)n2C)n(CCC)c1=O [Compound 6] ; MLD = > 300 mg/kg

CCCn1c(=O)c2nc(/C=C/c3cc(OC)c(OC)cc3OC)[nH]c2n(CCC)c1=O [Compound 22] yielded MLD of > 300 mg/kg

---

List of Number of the Animals Showing Remission values.
# Tested on: Haloperidol-Induced Catalepsy
# Protocol Notes: Effect on haloperidol-induced catalepsy
# Type: in vivo, male ddY mice
# Applied Conditions: Table 4-2; test compound 10 mg/kg orally; of 5 mice, catalepsy score not more than 4 points
Would you mind answering with just the numeric figure?

Compound Smiles | Study Target | Recorded Number
CCCn1c(=O)c2c(nc(/C=C/c3ccc(C)c(C)c3)n2C)n(CCC)c1=O | Haloperidol-Induced Catalepsy | 4
CCCn1c(=O)c2c(nc(/C=C/c3ccc(OC)cc3OC)n2C)n(CCC)c1=O | Haloperidol-Induced Catalepsy | 5
CCCn1c(=O)c2c(nc(/C=C/c3ccc(O)c(O)c3)n2C)n(CCC)c1=O | Haloperidol-Induced Catalepsy | 4
CCCn1c(=O)c2[nH]c(/C=C/c3cc(Br)c(OC)c(OC)c3)nc2n(CCC)c1=O | Haloperidol-Induced Catalepsy | 5
CCCn1c(=O)c2c(nc(/C=C/c3ccc(OCC)cc3)n2C)n(CCC)c1=O | Haloperidol-Induced Catalepsy | 5

Note: attention shifts to another entry.
Summary for this compound, CCCOc1ccc(/C=C/c2nc3c(c(=O)n(CCC)c(=O)n3CCC)n2C)cc1 : Number of the Animals Showing Remission is 3

---

# Tested on: dd-strain male mice
# Protocol Notes: Acute toxicity test (minimum lethal dose, oral)
# Assay type: in vivo
# Applied Conditions: oral administration, mortality seven days after administration, three mice per group
MLD reference

Examples with their reported MLD follow.
Compound Smiles | Study Target | MLD
CCCn1c(=O)c2c(nc(/C=C/c3cc(C)c(OC)cc3C)n2C)n(CCC)c1=O | dd-strain male mice | > 300 mg/kg
CCCCOc1ccc(/C=C/c2nc3c(c(=O)n(CCC)c(=O)n3CCC)n2C)cc1 | dd-strain male mice | > 100 mg/kg
CCCn1c(=O)c2c(nc(/C=C/c3ccc(OCC)c(OCC)c3)n2C)n(CCC)c1=O | dd-strain male mice | > 100 mg/kg

The recorded MLD for CCCn1c(=O)c2c(nc(/C=C/c3ccc(C)c(C)c3)n2C)n(CCC)c1=O is > 100 mg/kg

---

# Tested on: dd-strain male mice
# Protocol Notes: Acute toxicity test (minimum lethal dose, oral)
# Type: in vivo
# Applied Conditions: oral administration, mortality seven days after administration, three mice per group
Item-by-item account of MLD

As a guide, the following entries are already answered.
Compound | Study Target | MLD
CCCn1c(=O)c2[nH]c(/C=C/c3ccc(OC)c(C)c3C)nc2n(CCC)c1=O [Compound 12] | dd-strain male mice | > 300 mg/kg
CCCOc1ccc(/C=C/c2nc3c([nH]2)c(=O)n(CCC)c(=O)n3CCC)cc1 [Compound 49] | dd-strain male mice | > 100 mg/kg
CCCn1c(=O)c2c(nc(/C=C/c3cccc(Cl)c3)n2C)n(CCC)c1=O [Compound 39] | dd-strain male mice | > 100 mg/kg
CCCn1c(=O)c2c(nc(/C=C/c3ccc(OC)c(OC)c3)n2C)n(CCC)c1=O [Compound 1] | dd-strain male mice | > 300 mg/kg
CCCCn1c(=O)c2c(nc(/C=C/c3cc(OC)c(OC)c(OC)c3)n2C)n(CCCC)c1=O [Compound 8] | dd-strain male mice | > 300 mg/kg

Lab note: C=CCn1c(=O)c2c(nc(/C=C/c3cc(OC)c(OC)c(OC)c3)n2C)n(CC=C)c1=O [Compound 7] gave MLD of > 300 mg/kg

Entry CCCn1c(=O)c2c(nc(/C=C/c3ccccc3Cl)n2C)n(CCC)c1=O [Compound 41] , MLD reported as > 100 mg/kg

Documented MLD of CCCn1c(=O)c2[nH]c(/C=C/c3ccc4c(c3)OCO4)nc2n(CCC)c1=O [Compound 18] : > 300 mg/kg

Summary for this compound, CCCn1c(=O)c2c(nc(/C=C\c3ccc(OC)c(OC)c3)n2C)n(CCC)c1=O [Compound 46] : MLD is > 300 mg/kg

---

Below, each entry is listed alongside its reported MLD.
# Test system: dd-strain male mice
# Protocol Notes: Acute toxicity test (minimum lethal dose, oral)
# Type: in vivo
# Applied Conditions: oral administration, mortality seven days after administration, three mice per group

For orientation, consider the following solved cases.
Molecule | MLD
CCCn1c(=O)c2[nH]c(/C=C/c3ccc(OC)c(C)c3OC)nc2n(CCC)c1=O [Compound 14] | > 100 mg/kg
CCCn1c(=O)c2[nH]c(/C=C/c3cccc(OC)c3OC)nc2n(CCC)c1=O [Compound 28] | > 100 mg/kg
COc1cc(/C=C/c2nc3c(c(=O)n(C)c(=O)n3C)n2C)cc(OC)c1OC [Compound 2, (E)-8-(3,4,5-trimethoxystyryl)caffeine] | > 300 mg/kg
CCCn1c(=O)c2c(nc(/C=C/c3cc(OC)c(OCc4ccccc4)c(OC)c3)n2C)n(CCC)c1=O [Compound 27] | > 100 mg/kg
CCCn1c(=O)c2c(nc(/C=C/c3ccccc3F)n2C)n(CCC)c1=O [Compound 43] | > 100 mg/kg
CCCn1c(=O)c2[nH]c(/C=C/c3ccc(OC)cc3OC)nc2n(CCC)c1=O [Compound 24] | > 100 mg/kg
CCCn1c(=O)c2c(nc(/C=C/c3cc(OC)c(OC)cc3OC)n2C)n(CCC)c1=O [Compound 23] | > 300 mg/kg

Lab note: next molecule to report on.
Entry CCCn1c(=O)c2c(nc(/C=C/c3ccc(OC)c(OC)c3OC)n2C)n(CCC)c1=O [Compound 21] ; MLD = > 300 mg/kg

---

// reported MLD per item
# System: dd-strain male mice
# Protocol Notes: Acute toxicity test (minimum lethal dose, oral)
# Format: in vivo
# Applied Conditions: oral administration, mortality seven days after administration, three mice per group

The molecule CCCn1c(=O)c2c(nc(/C=C/c3ccc(OC)c(C)c3C)n2C)n(CCC)c1=O , tested on dd-strain male mice, showed MLD of > 300 mg/kg

CCCn1c(=O)c2nc(/C=C/c3ccc(OC)c(OC)c3OC)[nH]c2n(CCC)c1=O tested on dd-strain male mice gave MLD: > 300 mg/kg

Record for CCCn1c(=O)c2c(nc(/C=C/c3cc(OC)c(OC)cc3Br)n2C)n(CCC)c1=O under target or system dd-strain male mice: MLD reported as > 300 mg/kg

Note to self: MLD of CCCn1c(=O)c2[nH]c(/C=C/c3ccccc3Cl)nc2n(CCC)c1=O with dd-strain male mice was > 100 mg/kg

Entry CCCn1c(=O)c2c(nc(/C=C/c3ccc(OC)cc3OC)n2C)n(CCC)c1=O ; assay system dd-strain male mice; MLD recorded at > 300 mg/kg

MLD of CCCn1c(=O)c2c(nc(/C=C/c3cccc(F)c3)n2C)n(CCC)c1=O , assay on dd-strain male mice, is > 100 mg/kg

The value of MLD recorded for CCCn1c(=O)c2c(nc(/C=C/c3cc(Br)c(OC)c(OC)c3)n2C)n(CCC)c1=O when tested on dd-strain male mice reads > 100 mg/kg

Form field, MLD with dd-strain male mice, item CCCn1c(=O)c2c(nc(/C=C/c3ccc4c(c3)OCO4)n2C)n(CCC)c1=O : > 300 mg/kg
